- Tested on: HCT-15 colon
- testProtocol: NCI-60 one-dose screen, 48 h
- testContext: 10 µM unless noted
The panel holds about 83,000 compounds, 20% with a hit somewhere; the sample as a whole holds those more often. Activity calls are given as the source filed them. Rule for the calls: active = growth percent below 10; inactive = the rest.
Outcomes: active, inactive

{"molecule": "CC[C@@H]1[C@@H](C)O[C@@](O)([C@@H](C)[C@H](O)[C@H](C)[C@H]2OC(=O)/C=C/C=C/[C@H](C)[C@@H]([C@@H](C)[C@@H](O)[C@H](C)[C@@]3(O)C[C@@H](O[C@H]4C[C@@H](O)[C@H](O)C(C)O4)[C@H](CC)[C@@H](C)O3)OC(=O)/C=C/C=C/[C@@H]2C)C[C@H]1O[C@@H]1C[C@@H](O)[C@H](O)C(C)O1 (some centres not stated)", "assayedTarget": "HCT-15 colon", "qualitativeLabel": "active"}
{"molecule": "CCCCCCCCC(CO)NCCc1ccccc1 (configuration not stated)", "assayedTarget": "HCT-15 colon", "qualitativeLabel": "inactive"}
{"molecule": "CN1CC(CNC(=O)OCc2ccccc2)CC2c3cccc4c3c(cn4C)CC21 (configuration not stated)", "assayedTarget": "HCT-15 colon", "qualitativeLabel": "active"}
{"molecule": "C/C=C(\\C)C(=O)O[C@@H]1C(O)[C@H]2OC(COC(=O)CCC(=O)CCCCCC[C@H](CCCCC)O[C@@H]3OC(C)[C@H](OC(C)=O)C(O)[C@H]3O2)[C@H]1OC(=O)/C=C/c1ccccc1 (some centres not stated)", "assayedTarget": "HCT-15 colon", "qualitativeLabel": "inactive"}
{"molecule": "C=CCCCCCCCCC(=O)[O-].C=CCCCCCCCCC(=O)[O-].[Zn+2]", "assayedTarget": "HCT-15 colon", "qualitativeLabel": "inactive"}
{"molecule": "Cc1c(O)c(CN(CCCl)CCCl)cc(CN(CCCl)CCCl)c1O", "assayedTarget": "HCT-15 colon", "qualitativeLabel": "inactive"}
{"molecule": "Cn1cc(-c2csc(-c3cn(CCN4CCOCC4)c4ccccc34)n2)c2cccnc21", "assayedTarget": "HCT-15 colon", "qualitativeLabel": "inactive"}
